Target: huPD1-ECD_Fc-knob/hole (P1AD9704) (human)
Experiment: SPR, 25C
Please go through the items and note down their Kd.
Number in nM, nothing else.

Challenge: Look up Kd: P1AI1648 PD1-376_VL2_VH4_I58L_D62E (antibody, V domains shown) VH: EVQLLESGGGLVQPGGSLRLSCAASGFSFSSYTMSWVRQAPGKGLEWVSAISGGGRDLYYPESVKGRFTISRDNSKNTLYLQMNSLRAEDTAVYYCVLLTGRVYFALDSWGQGTLVTVSS VL: DIVMTQSPDSLAVSLGERATINCKASESVDTSDNSFIHWYQQKPGQSPKLLIYRASTLESGVPDRFSGSGSGTDFTLTISSLQAEDVAVYYCQQNYDVPWTFGQGTKVEIKR
Response given: 0.144

Challenge: # iterate: P1AH4157 PD1-376_VL2_VH4 (antibody, V domains shown) VH: EVQLLESGGGLVQPGGSLRLSCAASGFSFSSYTMSWVRQAPGKGLEWVSAISGGGRDIYYPDSVKGRFTISRDNSKNTLYLQMNSLRAEDTAVYYCVLLTGRVYFALDSWGQGTLVTVSS VL: DIVMTQSPDSLAVSLGERATINCKASESVDTSDNSFIHWYQQKPGQSPKLLIYRASTLESGVPDRFSGSGSGTDFTLTISSLQAEDVAVYYCQQNYDVPWTFGQGTKVEIKR
Response given: 0.126

Challenge: # iterate: P1AI1651 PD1-376_VL2_VH4_P61A (antibody, V domains shown) VH: EVQLLESGGGLVQPGGSLRLSCAASGFSFSSYTMSWVRQAPGKGLEWVSAISGGGRDIYYADSVKGRFTISRDNSKNTLYLQMNSLRAEDTAVYYCVLLTGRVYFALDSWGQGTLVTVSS VL: DIVMTQSPDSLAVSLGERATINCKASESVDTSDNSFIHWYQQKPGQSPKLLIYRASTLESGVPDRFSGSGSGTDFTLTISSLQAEDVAVYYCQQNYDVPWTFGQGTKVEIKR
Response given: 0.114
